- target: Beta-1/Beta-2/Beta-3 adrenergic receptor (Rattus norvegicus, UniProt P10608+P18090+P26255)
- Sequence (P18090 whole entry): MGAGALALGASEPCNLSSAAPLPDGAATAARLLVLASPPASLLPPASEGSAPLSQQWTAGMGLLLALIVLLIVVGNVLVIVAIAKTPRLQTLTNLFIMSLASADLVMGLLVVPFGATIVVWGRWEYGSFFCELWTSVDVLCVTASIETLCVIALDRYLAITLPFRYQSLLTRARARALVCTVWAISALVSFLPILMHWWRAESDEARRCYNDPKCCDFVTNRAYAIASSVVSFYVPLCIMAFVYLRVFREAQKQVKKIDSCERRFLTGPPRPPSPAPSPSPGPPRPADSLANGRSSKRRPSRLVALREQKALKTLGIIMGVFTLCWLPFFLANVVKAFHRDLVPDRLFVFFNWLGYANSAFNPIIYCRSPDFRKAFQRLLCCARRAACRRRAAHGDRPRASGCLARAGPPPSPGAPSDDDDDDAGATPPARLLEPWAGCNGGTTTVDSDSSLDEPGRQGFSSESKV
- Sequence (P26255 whole entry): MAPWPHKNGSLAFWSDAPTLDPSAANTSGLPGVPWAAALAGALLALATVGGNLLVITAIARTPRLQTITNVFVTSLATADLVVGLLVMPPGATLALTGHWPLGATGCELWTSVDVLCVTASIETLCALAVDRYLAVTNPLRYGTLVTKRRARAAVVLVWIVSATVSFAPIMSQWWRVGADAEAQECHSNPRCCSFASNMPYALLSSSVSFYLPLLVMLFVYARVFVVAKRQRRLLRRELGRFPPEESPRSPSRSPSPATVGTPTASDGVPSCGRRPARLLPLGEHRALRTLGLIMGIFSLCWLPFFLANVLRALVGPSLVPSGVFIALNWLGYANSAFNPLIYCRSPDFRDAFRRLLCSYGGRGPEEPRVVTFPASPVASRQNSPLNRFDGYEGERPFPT
- Sequence (P10608 whole entry): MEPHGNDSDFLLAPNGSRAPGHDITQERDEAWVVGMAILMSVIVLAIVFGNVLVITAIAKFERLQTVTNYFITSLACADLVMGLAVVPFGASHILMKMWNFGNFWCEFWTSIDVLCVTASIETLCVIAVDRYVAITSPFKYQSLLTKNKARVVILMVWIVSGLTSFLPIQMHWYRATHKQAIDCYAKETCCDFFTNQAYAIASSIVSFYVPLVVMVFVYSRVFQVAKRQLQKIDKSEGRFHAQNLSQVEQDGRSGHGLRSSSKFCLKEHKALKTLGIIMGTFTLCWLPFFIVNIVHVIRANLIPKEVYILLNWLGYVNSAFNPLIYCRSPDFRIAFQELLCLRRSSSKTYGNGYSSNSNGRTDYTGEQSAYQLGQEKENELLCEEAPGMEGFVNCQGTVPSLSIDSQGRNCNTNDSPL
- experimentDescription: Binding affinity against Beta adrenergic receptor using [3H]dihydroalprenolol radioligand in rat brain homogenate
pIC50: −log10 of the molar value.
observable: pIC50

- NCC(c1ccc(O)c(O)c1)S(=O)(=O)O (configuration not stated): 3.89
- CNCC(c1ccc(O)c(O)c1)S(=O)(=O)O (configuration not stated): 3.96
